Test: Test compounds' PK assay in ICR mice
Assay type: in vivo
Details: mouse, plasma, iv, 2 mg/kg
VALUE TYPE: clearance (mL/min/kg)
Form entry: value (mL/min/kg) — number only.

Look up clearance: CCOC(=O)C1=C(CN2CCOC(CCC(=O)O)C2)NC(c2nccs2)=NC1c1ccc(F)cc1Br (stereo not shown) [Example 129] 20.3

----------
Assay: Test compounds' PK assay in ICR mice
Format: in vivo
Conditions: mouse, plasma, iv, 2 mg/kg, read-out: Vss
VALUE TYPE: Vd (L/kg)
Form entry: value (L/kg) — number only.

Look up Vd: CCOC(=O)C1=C(CN2CCOC(CCC(=O)O)C2)NC(c2nccs2)=NC1c1ccc(F)cc1Br (stereo not shown) 0.9
